Every entry's value here was drawn from patent EP0152542A1.

# protocol.summary: Acute toxicity per os in the rat (LD50 at the 14th observation day)
# particulars: in vivo, po, per os, 14th observation day
# Method: The analgesic activity of the compounds of for mula I, administered by the oral route has been determined by means of the following tests: • - Phenylquinone test in mice (Hendershot and Forsa ith - J. Pharmacol. Exp. Ther. 123, 237 (1959)) • - Hot plate test - Male albino mice, treated with increasing doses of the compound under test, are placed on a thermostatized plate at 55°C. The time necessary for the mouse to react to the painful stimulus is then measured. […]
reported.endpoint: LD50 at 336 h (mg/kg)
Entry rule: numbers only, all in mg/kg.

compound Cc1c(C(=O)O)c(C)n(C)c1C(=O)c1ccc(Cl)cc1Cl [R=CH3, R1=Cl, R2=H, R3=Cl] , LD50 at 336 h observed: 1700
